// provenance: ChEMBL document CHEMBL5137080

Entries and their MIC values follow.
Tested on: Aspergillus fumigatus
Experiment: Antifungal activity against Aspergillus fumigatus 7544 assessed as fungal growth inhibition incubated for 48 hrs by broth microdilution method
Format: functional

Sample answers from the record:
compound=O=C(NCCc1c[nH]c2ccccc12)c1c(O)c2sccc2n(Cc2ccccc2)c1=O metric=MIC value="> 64 mg/L"
compound=O=C(NCCO)c1c(O)c2sccc2n(Cc2ccccc2)c1=O metric=MIC value="32 mg/L"
compound="CCC(C)NC(=O)c1c(O)c2sccc2n(Cc2ccccc2)c1=O (stereo unspecified)" metric=MIC value="64 mg/L"
compound=O=C(NCC1CC1)c1c(O)c2sccc2n(Cc2ccccc2)c1=O metric=MIC value="> 64 mg/L"
compound=C=CCCNC(=O)c1c(O)c2sccc2n(Cc2ccccc2)c1=O metric=MIC value="> 64 mg/L"
compound=O=C(NCCCO)c1c(O)c2sccc2n(Cc2ccccc2)c1=O metric=MIC value="32 mg/L"
compound=O=C(NC1CCCCC1)c1c(O)c2sccc2n(Cc2ccccc2)c1=O metric=MIC value="> 64 mg/L"
compound=CCCCNC(=O)c1c(O)c2sccc2n(Cc2ccccc2)c1=O metric=MIC value="> 64 mg/L"
compound=O=C(NCc1ccccc1Cl)c1c(O)c2sccc2n(Cc2ccccc2)c1=O metric=MIC value="> 64 mg/L"
compound=O=C(NC1CCCC1)c1c(O)c2sccc2n(Cc2ccccc2)c1=O metric=MIC value="> 64 mg/L"

Please examine the following record next.
What MIC value was documented for this compound, O=C(NCCN1CCOCC1)c1c(O)c2sccc2n(Cc2ccccc2)c1=O ?
64 mg/L

* * *

Experiment: Cmax in Sprague-Dawley rat at 5 mg/kg,po by LC-MS/MS analysis
Type: ADME, organism-based
Design: dose 5 mg/kg, route po
Details: in vivo
metric: Cmax (ng/mL)
Give a bare numeral; the unit ng/mL is implied.

What Cmax value was documented for this compound, CCCCNC(=O)c1c(O)c2sccc2n(Cc2ccccc2)c1=O ?
2.97

* * *

Tested on: Aspergillus fumigatus
Experiment: Antifungal activity against Aspergillus fumigatus 7544 assessed as fungal growth inhibition incubated for 48 hrs by broth microdilution method
Assay type: functional
Entries and their MIC values follow.

compound=COc1cccc(CNC(=O)c2c(O)c3sccc3n(Cc3ccccc3)c2=O)c1 system="Aspergillus fumigatus" metric=MIC value="> 64 µg/mL"

Please examine the following record next.
Give recorded MIC with Aspergillus fumigatus for the following compound: CSc1ccc(CNC(=O)c2c(O)c3sccc3n(Cc3ccccc3)c2=O)cc1
> 64 µg/mL

* * *

Test: Hemolytic activity in rabbit RBC at 64 ug/ml incubated for 1 hr by spectrophotometry
Assay type: toxicity, cell-based, Oryctolagus cuniculus, Erythrocyte
Conditions: red blood cells, at 64 µg/mL, read-out: Activity
metric: hemolysis at 1 h, 64 ug/ml

What hemolysis at 1 h, 64 ug/ml value was documented for this molecule, C[C@@H]1[C@H](O)[C@@H](C)/C=C/C=C/C=C/C=C/C=C/C=C/C=C/[C@H](O[C@@H]2O[C@H](C)[C@@H](O)[C@H](N)[C@@H]2O)C[C@@H]2O[C@](O)(C[C@@H](O)C[C@@H](O)[C@H](O)CC[C@@H](O)C[C@@H](O)CC(=O)O[C@H]1C)C[C@H](O)[C@H]2C(=O)O [AMPHOTERICIN B] ?
100%

* * *

Test: Cytotoxicity against human HUVEC cells assessed as cell viability at 64 ug/ml incubated for 24 hrs by CCK-8 assay
Format: toxicity, cell-based
Conditions: at 64 µg/mL, read-out: Activity
metric: viability at 24 h, 64 ug/ml (%)
Give a bare numeral; the unit % is implied.

What viability at 24 h, 64 ug/ml value was documented for this molecule, C[C@@H]1[C@H](O)[C@@H](C)/C=C/C=C/C=C/C=C/C=C/C=C/C=C/[C@H](O[C@@H]2O[C@H](C)[C@@H](O)[C@H](N)[C@@H]2O)C[C@@H]2O[C@](O)(C[C@@H](O)C[C@@H](O)[C@H](O)CC[C@@H](O)C[C@@H](O)CC(=O)O[C@H]1C)C[C@H](O)[C@H]2C(=O)O ?
68.2
